Target: MDM2 (synMDM2) 25-109 (Homo sapiens), Q00987
Sequence (Q00987 25-109): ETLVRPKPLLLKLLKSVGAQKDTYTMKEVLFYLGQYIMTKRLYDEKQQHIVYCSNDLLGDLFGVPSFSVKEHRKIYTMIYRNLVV
Assay: SPR
Conditions: modification not given
readout: pKd
As a rule, pKd stands for the negative log10 of the concentration, concentration in M.

Item CYSFDCLWKCLAMGFSSGKCINSKCKC [stoppin-1] has what recorded pKd?
6.10
